Values from PubChem BioAssay (NCI)

System: SF-268 CNS
assaySummary: NCI tumour cell line growth inhibition, 48 h; in the data active = GI50 below about 0.43 µM; inactive = the rest
In this exercise, the only acceptable responses are active, inactive

# example entries with known answers
Cc1c2cnccc2c(C)c2c1c1cc(O)ccc1n2C(C)C = inactive
C[C@@H](Nc1nc(N[C@H](C)C(F)(F)F)nc(-c2cccc(Cl)n2)n1)C(F)(F)F = inactive
COc1ccc(-c2nn(-c3cccc(Cl)c3)cc2/C=C2\NC(=S)N(c3ccc(Cl)cc3)C2=O)cc1 = inactive
COc1ccc2[nH]c(Cl)c(/C=C3/C(=O)Nc4ccccc43)c2c1 = inactive
CN(C)c1ccc(C(=S)c2ccc(N(C)C)cc2)cc1 = inactive
C1=N[C@]23C(=N[C@H](N=C2NCc2ccco2)[C@]24N=CNC2=N[C@H]3N=C4NCc2ccco2)N1 = inactive
COc1ccc(-n2cc(-c3cc(OC)c(OC)c(OC)c3)nc2SCc2ccc(Cl)cc2)cc1OC = inactive
CNC(=O)c1cc(Oc2ccc3nc(NC(=O)Nc4ccc(CN5CCOCC5)c(C(F)(F)F)c4)sc3c2)ccn1 = inactive
O=c1cc(-c2ccc(Cl)cc2)[nH]c2ccccc12 = inactive
CC[C@@]1(O)C(=O)OCc2c1cc1n(c2=O)Cc2cc3cc(Cl)ccc3nc2-1 = active

Field: outcome | Entry: CCN(C(=O)N1CCN(c2cc3c(cc2F)c(=O)c(C(=O)O)cn3C2CC2)CC1)c1nc(-c2ccccc2)cs1
inactive

Field: outcome | Entry: O=CC(OC(=O)c1ccccc1)C(OC(=O)c1ccccc1)C(COC(c1ccccc1)(c1ccccc1)c1ccccc1)OC(=O)c1ccccc1 (configuration not stated)
inactive

----------
Exercise: state measured TGI for each of the compounds provided.
System: HT29 colon
assaySummary: NCI tumour cell line growth inhibition, 48 h

N/C(=N\N=C\c1cc2ccccc2s1)c1cnccn1 = > 100 µM
Cc1ccccc1NC(=O)CC1C(=O)Nc2ccccc2S1=O (centres undefined) = > 100 µM
O=C(CCc1nc(=S)[nH][nH]1)Nc1cc(Cl)ccc1Cl = > 100 µM
CC12NC(=C(C#N)C#N)C(C#N)=C3NC(N)=C(C#N)C(=C31)Oc1ccccc12 (centres undefined) = > 100 µM
CCOC(=O)c1c(N2CCCC2)[nH]c(=O)c(C(c2c(O)c(C(=O)OCC)c(N3CCCC3)[nH]c2=O)C(C)C)c1O = > 100 µM
C/C(=C1/N=C(c2cc([N+](=O)[O-])ccc2Cl)N(c2ccc(Br)cc2)C1=O)c1ccc(N(CCC#N)CCC#N)cc1C = > 100 µM
CN(C)c1ccc(/C=C/C(=O)c2ccc(Nc3nc(Nc4ccc(F)cc4)nc(Nc4ccc(F)cc4)n3)cc2)cc1 = 66.6 µM
O=C(Nc1cccc(C(F)(F)F)c1)C(=O)C(C(=O)c1ccc(Cl)c(Cl)c1)C1OC(=O)c2ccccc21 (centres undefined) = > 100 µM

The measured TGI associated with COc1ccc(C=Nc2ccc(-c3nc4ccccc4s3)cc2)cc1OC reads > 100 µM

----------
System: NCI-H522 lung
assaySummary: NCI tumour cell line growth inhibition, 48 h
assayMetric: GI50

COc1ccc(C(=O)/C=C/c2sc(Cl)nc2Cl)cc1 = 0.452 µM
CCn1cnc(C[C@H](NC(=O)[C@H](CCCCNC(=O)Nc2cc(C(F)(F)F)cc(C(F)(F)F)c2)NC(=O)Nc2cc(C(F)(F)F)cc(C(F)(F)F)c2)C(=O)OC)c1 = 5.19 µM
N#C/C(=C\c1ccc(O)c(O)c1)C(=O)NCc1ccc(C(F)(F)F)cc1 = 3.06 µM
COc1ccc(-c2nn(-c3cccc(Cl)c3)cc2/C=C2\NC(=S)N(c3ccc(Cl)cc3)C2=O)cc1 = 1.98 µM
COc1ccc(-n2cc(-c3cc(OC)c(OC)c(OC)c3)nc2SCc2ccc(Cl)cc2)cc1OC = 41.2 µM
C[C@@H](Nc1nc(N[C@H](C)C(F)(F)F)nc(-c2cccc(Cl)n2)n1)C(F)(F)F = 30 µM

For every record below, what is its GI50?
1. CC(C)C[C@H](CC(=O)O)C(=O)N[C@@H](Cc1c[nH]c2ccccc12)C(=O)N[C@@H](C)c1ccccc1
2. Cc1cccc2c(C3=C(c4cn(C)c5ccccc45)C(=O)NC3=O)cn(C)c12

1. > 25 µM
2. > 17 µM

----------
System: SF-539 CNS
assaySummary: NCI tumour cell line growth inhibition, 48 h; in the data active = GI50 below about 0.43 µM; inactive = the rest
In this exercise, the only acceptable responses are active, inactive

C[C@@H](Nc1nc(N[C@H](C)C(F)(F)F)nc(-c2cccc(Cl)n2)n1)C(F)(F)F = inactive
N#C/C(=C\c1ccc(O)c(O)c1)C(=O)NCc1ccc(C(F)(F)F)cc1 = inactive
Cc1cc(F)c(C(=O)Nc2cccc(-c3nncn3C(C)C)n2)cc1-n1cnc(C2CC2)c1 = inactive
CCN(C(=O)N1CCN(c2cc3c(cc2F)c(=O)c(C(=O)O)cn3C2CC2)CC1)c1nc(-c2ccccc2)cs1 = inactive

Here is another molecule to look at.
Field: outcome | Entry: O=C([CH-]C(=O)c1ccccc1)c1ccccc1.[C-]#[O+].[C-]#[O+].[Ir]
inactive

----------
Exercise: state measured TGI for each of the molecules provided.
Tested on: OVCAR-3 ovarian
assaySummary: NCI tumour cell line growth inhibition, 48 h

Take a look at these entries with their results.
CC1(CO)C(O)CCC2(C)C1CCC1CC3CC12CCC3(O)CO (centres undefined) = > 100 µM
O=C(O)C1C2C=CC(O2)C1C(=O)NCc1cccnc1 (centres undefined) = > 100 µM
C[C@H]1CCC/C=C/C2CC(OC(=O)CN(C)C)CC2C(OC(=O)CN(C)C)/C=C/C(=O)O1 (some centres undefined) = 3.2 µM

Now consider the entry below.
The measured TGI associated with Oc1ccc(-c2c3ccccc3c(-c3ccc(O)cc3)c3ccccc23)cc1 reads > 100 µM

----------
Tested on: HOP-62 NSCLC
assaySummary: NCI tumour cell line growth inhibition, 48 h
# binarize TGI: threshold 20 µM inclusive, high side 1.0, low side 0.0

c1ccc(CN2CCC(=NN3CCCCC3)CC2)cc1 = 1.0
CN(C)c1ccc(C(=S)c2ccc(N(C)C)cc2)cc1 = 1.0

Is TGI at least 20 µM? Consider CC(C)N(C(=O)C12C3C4C1C1C2C3C41C(=O)C(C)(C)C)C(C)C (stereo unspecified)
1.0

Is TGI at least 20 µM? Consider COc1ccccc1C1C2=C(COC2=O)Oc2cc3c(cc21)OCO3 (stereo unspecified)
1.0

Is TGI at least 20 µM? Consider C[C@@H](Nc1nc(N[C@H](C)C(F)(F)F)nc(-c2cccc(Cl)n2)n1)C(F)(F)F
1.0

Is TGI at least 20 µM? Consider CCO/C(O)=C(/C(=N)N1CCOCC1)C(=O)Nc1cccc(C(F)(F)F)c1
1.0

Is TGI at least 20 µM? Consider CCOC(=O)Oc1cc2ccsc2c2c1c1ccccc1n2C(=O)OCC
1.0

Is TGI at least 20 µM? Consider Clc1ccc(-c2cc(-c3ccccc3)nc(N3CCN(CCCNc4ccnc5cc(Cl)ccc45)CC3)n2)cc1
0.0

Is TGI at least 20 µM? Consider O=C1OC(CC(=O)c2ccc(F)cc2)C(Cl)=C1Cl (stereo unspecified)
1.0

Is TGI at least 20 µM? Consider C/C(=C1/N=C(c2cc([N+](=O)[O-])ccc2Cl)N(c2ccc(Br)cc2)C1=O)c1ccc(N(CCC#N)CCC#N)cc1C
1.0

Is TGI at least 20 µM? Consider O=C1c2ccccc2N=C(c2cc3c(cc2Cl)Sc2nccn2S3(=O)=O)OS(=O)(=O)N1c1ccccc1
1.0

Is TGI at least 20 µM? Consider [N-]=[N+]=CC(=O)C1(C(=O)C=[N+]=[N-])CC1
1.0

Is TGI at least 20 µM? Consider C[C@H]1CCC/C=C/C2CC(OC(=O)CN(C)C)CC2C(OC(=O)CN(C)C)/C=C/C(=O)O1 (stereo partly specified)
1.0

Is TGI at least 20 µM? Consider CC(=N/NC(=S)N1CCCCCC1)/C(C)=N\NC(=S)N1CCCCCC1
0.0

Is TGI at least 20 µM? Consider COc1ccc2[nH]c(Cl)c(/C=C3/C(=O)Nc4ccccc43)c2c1
0.0

Is TGI at least 20 µM? Consider COc1ccc(CN(CCN(C)C)c2ccccn2)cc1 (tested in a mixture with another compound)
1.0

Is TGI at least 20 µM? Consider CCN(CC)CC1CCCCN1CC(=O)N1c2cc(Cl)ccc2NC(=O)CC1C (stereo unspecified)
1.0

Is TGI at least 20 µM? Consider CC(C)OP(=O)(OC(C)C)C(=NCCO)NNc1ccc([N+](=O)[O-])cc1
1.0

Is TGI at least 20 µM? Consider O=c1oc2cc(O)ccc2c2[nH]c3cc(O)ccc3c12
1.0

Is TGI at least 20 µM? Consider Nc1nc(N)c2c(n1)NC(c1sc(Cl)nc1Cl)CC(c1ccccc1)=N2 (stereo unspecified)
0.0

Is TGI at least 20 µM? Consider C=C1C(=O)OC2C1CCC(=C)C1CC(O)C(=C)C12 (stereo unspecified)
1.0
